Measurement Description: yeast display, Sf9 membrane polyspecificity reagent, FACS + sequencing; frameworks hold sequencing errors
Metric: polyreactivity (PSR sort gate)

Look over these answered cases.
monomer_sequence=QVKLVESGGALVQAGCSLRLSCAASARTFPVYAMGWYRQAPGKERELVAAIRYSAGSTYYADSVKGRFTISRDNAKITVYLQMNSLKPEDSSVSYCARTTPTGRQYRRYDYWGQGTQLTVSS metric="polyreactivity (PSR sort gate)" obs_value="low polyreactivity"
monomer_sequence=QVQLVESGGGLVQAGGSLRLSCAASGSIFYIYVMGWYRQAPGKERELVAAISSGGTTNYADSVKGRFTISRDNAKNTVYLQMNSLIPEDTAVYYCAADVLIARYPGYSYEYWGQGTQVTVSS metric="polyreactivity (PSR sort gate)" obs_value="low polyreactivity"
monomer_sequence=QVQLVESGGGLVEAGGSLRLSCAAYGRTFDYYDMGWYRPAPGKERELVAGITVSSGGTNYADSVKGRFTISRDNAKNTVYLQMNSLNPEDTAVYYCADANYDFYAFDSTYRYNYWGQGTQVTVSS metric="polyreactivity (PSR sort gate)" obs_value="low polyreactivity"
monomer_sequence=QVQLVESGGGLVQAGGSLRLSCAASGIIFSSNAMGWYRQAPGKERELVAAISRRGGSTSYADSVKGRFTISRDNAKNTVYLQINSLKPEDTAVYYCAARYVYPGEDYWGQGTQVTVSS metric="polyreactivity (PSR sort gate)" obs_value="high polyreactivity"
monomer_sequence=QVQLVESGGGLVQAGGSLRLSCAASGRTFFKNAMGWYRQAPGKERELVAAITSSGGTTYYADSVKGRFTISRDNAKNTVYLQMNSLKPEDTAVYYCATRTYPIRYGYGYWGQGTQVTVSS metric="polyreactivity (PSR sort gate)" obs_value="high polyreactivity"

As a next step, examine the sequence that follows.
### Prompt Requested read-out: polyreactivity (PSR sort gate). Entry: QVQLVESGGGLVQAGGSLRLSCAASGSTFGYYAMGWYRQAPGKERELVAAISYNTGSTYYADSVKGRFTISRDNAKNTVYLQMNSLKPEDTAVFYCAASRSRYSVNWYNYWGQGTQVTVSS
### Response high polyreactivity

* * *

Measurement Description: yeast display, Sf9 membrane polyspecificity reagent, FACS + sequencing; frameworks hold sequencing errors
Metric: polyreactivity (PSR sort gate)

Examples with answers:
monomer_sequence=QVQLVESVGGLVQAGGSLRLSCASSVRTFYRYAMGWYRQAPGKERELVAAISRGGRTNYADSVKGRFTISRDNAKNTVYLQMNSLKPEDTAVYYCAVSNYGALYDYWGQGTQVSVSS metric="polyreactivity (PSR sort gate)" obs_value="high polyreactivity"
monomer_sequence=QVQLQESGGGLVQAGGSLRLSCAASGTISLGDNMGWYRQAPGKEREFVATISVGGITYYVDSVKGRFTISRDIAKNTVYLQMNSLKPEDTAVYYCAALDIYYFRYYYWGQGTQVTVSS metric="polyreactivity (PSR sort gate)" obs_value="low polyreactivity"
monomer_sequence=QVQLVESGGGLVQAGGSLRLSCAASGSIFYPNAMGWYRQAPGKERELVATIRRRGGSTYYADSVKGRFTISRDNAKNTVYLQMHSLKPEDTAVDYCAVGSPTPYRALDLYDYWGQGTQVTVSS metric="polyreactivity (PSR sort gate)" obs_value="high polyreactivity"
monomer_sequence=QVQLVESGGGLVKAGGSLRLSCAASGRTFLRNAMGWYRQAPGKERELVATITRGGSTYYADSVKGRFTISRDNAKNTVYLQMNSLKPEDTAVYYCAKDITGCFRRPDYGYWGQGTQVTVSS metric="polyreactivity (PSR sort gate)" obs_value="low polyreactivity"
monomer_sequence=QVQLVESGVGLVQAGGSLRLSCAASGSSFTSNAMGSYRQAPGKEREFVAAISVGGGITYYADSVKGRFTISRDNAKNTVYLQMYSLKPEDTAVYYCAADGEYPHSEDFEYWGQGTQVTVSS metric="polyreactivity (PSR sort gate)" obs_value="low polyreactivity"

### Prompt Field request: polyreactivity (PSR sort gate) | item: QVQHVESGGGLVQAGGSLRLSCAATGRIFKYYARGWYTQAPGKERELVAAISSTGGRTYYADSVKGRFTNSRDNAKNTVYLQMNSLKPEDTAVFSCAADYAWGDPGRARFGYWGQGTQVTVSS
### Response high polyreactivity

### Prompt Which polyreactivity (PSR sort gate) reading was recorded for the sequence QVQLVESGGGIVQAGGSLRLSCAASGRIFWYNAMGWYRQAPGKERELVAGITRSGGRTYYADCVKGRFTISRDNAKNTVYLQMNSLKPEYTAVYYCAAAPYARRDYEYWGQGTQVTVSS ?
### Response high polyreactivity

### Prompt Which polyreactivity (PSR sort gate) value is on record for QVQLVESAGGLVQAGGSLSLSCAASGGMFTGYAMGWDRQAPGTERELVAAINTGGNTYYADSVKGRFTISRDNAKNTVYLQMNSLKPEDTAVYYCAAVYFPRSNTARRYGYWGQGTQVTVSS ?
### Response high polyreactivity

* * *

Measurement Description: yeast display, Sf9 membrane polyspecificity reagent, FACS + sequencing; frameworks hold sequencing errors
Metric: polyreactivity (PSR sort gate)

As a guide, the following entries are already answered.
monomer_sequence=QVQLVESGGGLVQAAGSLRLSCAASGSIFVRNAMGWYRQAPGKEREFVAAISWRGGTYYADSVKGRFTISRDNAKNTVYLQMNSLKPEDSAVYYCAARLYPTPGNGALGKTAWVYYWGQGTQVTVSS obs_value="low polyreactivity"
monomer_sequence=QVQLQESGGGLVQAGGSLRLTCAASGTITVLYKRGWFRQAPGKEREFVASINYGTSTYYADSVKGRFTVSRDSAINTVYLQMTSLKPEDTAVDYCAAAYRWQDVYRYWGQGTQVTVSS obs_value="low polyreactivity"
monomer_sequence=QVQLVESGGGLVQAGGSLRLSCAASGITFPVYAMGWYRQAPGKERELVATITSSGGRTYYADSVKGRFTISRDNAKNTVYLQMNSLKPEDTAVYYCAARPPYIRTLYYWGQGTQVTVSS obs_value="high polyreactivity"
monomer_sequence=QVQLVESGGGLVQAGGSLRLSCAASGRTFSYNAMGWYRQAPGKERELVAVISASGGRTNYADSVKGRFTISRDNAKNTVYLQMNSLKPEDTAVYYCNALFGLGVKGYDYWGQGTQVTVSS obs_value="low polyreactivity"
monomer_sequence=QFQLLESGGGLVQAGGSLRLSCAASGSIFRSNTMGWSRQAPGKAREFVAAISRRGSRTYADSVKGRFTISRDNAKNTVYLQMNSRKPEDTAVYYCAAERGYQAHPGQGDYWGQGTQVTVSA obs_value="high polyreactivity"
monomer_sequence=QVQLVESGGGIVQAGGSLRLSCAASGRIFVRNAMGWYRQARGKERELVAAISWSGGTNYADSVKGSFTISRDNAKNTVYLQMNILKPEDTAVYYCAALSVWSYYTYYYWGQGTQVTVSS obs_value="high polyreactivity"
monomer_sequence=QVQLVESGGGLVQAGGSLRLSCAASGSTFIFNAMGWYRQAPGKEWELVAGISSGSTYYADSVKGRFTISRDNAKNTVYLQMNSLKPEDTAVYYCATKLRRWRFYAAYDYWGQGTQVTVSS obs_value="high polyreactivity"
monomer_sequence=QVQLVESGGGLVQAGGSLRLSCAASGFTFYNYAKGWYIQAPGNERELVAAITSRGGSTYYADSVKGRFTISRDNAKNTVYLQMNSLKPEDTAVYYCAAGYVHYGWFELDYWGQGTQVTVSS obs_value="low polyreactivity"
monomer_sequence=QVQLVESGGGLVQAGGSLRLSCAASGFIFPYNTMGWYRQAPGTERELVAAIDSGGSTNYADSVKGRFTISRDNAKNTVDLQMNSLKPEDTAVYYCAADDPGSWWVGLLLTGVDDDYWGQGTQVTVSS obs_value="low polyreactivity"
monomer_sequence=QVQLVESGGGLVQAGGSLRISCAASGSIFRVYAMGWYRPAPGKERELVASITLSGGSTYYADSVKGRVTISRDNAKNTVYLQMNSLKPDDTAVYSCAARKRYRNPNTSRGMDYWGQGTQVNVSS obs_value="high polyreactivity"

### Prompt Suppose we examine the sequence QVQLQEIGGGLVQAGRSLRLSCAASGSISRLDYMGWYRQASGKERELVAAIDNGSTTYYADSVKGRLTISRDNAKYTVYLQMNSLKPEDTAVYFCAAVRGRGGTHAYWGQGTQVTVSG ; what polyreactivity (PSR sort gate) value has been reported?
### Response low polyreactivity

* * *

Measurement Description: yeast display, Sf9 membrane polyspecificity reagent, FACS + sequencing; frameworks hold sequencing errors
Metric: polyreactivity (PSR sort gate)

monomer_sequence=QVQLVESGGGLLQAGGSLRLSCAASGRIFRYYAMVWYIQAPVKERELVAGISWTGGTTYYADSVNGRFTISLDNAKNSVYLQMYSLKPEDSAVDYCIVRRSTLYDYWGQGTQVTVSS metric="polyreactivity (PSR sort gate)" obs_value="high polyreactivity"
monomer_sequence=QVQLVESGGGLVQAGGSLRLSCAASGSTLGSYAMGWYRQAPGKERELVAAINTSGGNTYYADSVKGRFTISRDNAKNTVYLQMNSLKPEDTAVYYCNARYYGGGATFGYWGQGTQVTVSS metric="polyreactivity (PSR sort gate)" obs_value="low polyreactivity"
monomer_sequence=QVQLVESGGGLVQAGGSLRLSCAASASTFTINAMGWYRQAPGKERELVAAISRSGGSTFYADSVKGRFTISRDNAKKTVYLQMNSLKPEDTAVYYCAARGVNRQGFNYWGQGTQVTVSS metric="polyreactivity (PSR sort gate)" obs_value="high polyreactivity"
monomer_sequence=QVQLVESGGGLVQAGGSLRVSCAASGSIFIGYAMGWSRQAPGKERELVAAINDSGDRTYYADSVKGRFTISRDNAKNTVYLQMNSLKPEDTAVYYCAADLVSLDPEYDYWGQGTQVTVSS metric="polyreactivity (PSR sort gate)" obs_value="low polyreactivity"
monomer_sequence=QVQLVESGGGLVQAGGSLRLTCAASGRIFIGNAMGWYRQAPGKERELVAAISSGGSTDYADSVKGRFTISRDNAKNTVYLQMNSLKPEDTAVYYCNADYEGYYDYGYWGQGTQVTVSS metric="polyreactivity (PSR sort gate)" obs_value="low polyreactivity"
monomer_sequence=QVQLVESGGGLVQAGGSLRLSCAASGLTSHSYAMGWYRQAPGKERELVAAINGDGGSTYYADSVKGRFTISRDNAKNTVYLQMNSLKPEDTAVYYCAAQGNRPRGEYDYWGQGTQVTVSS metric="polyreactivity (PSR sort gate)" obs_value="high polyreactivity"
monomer_sequence=QVQLVESGGGLLQAGGSLRLSCAASGNIFTYYAMGWYRQAPGKERDLVAAIRWRSGSTYYADSVKGRFTISRDNAKNTVYLQMNSLKPEDTAVYYCADDGTPYEYDYWGQGTQVTVSS metric="polyreactivity (PSR sort gate)" obs_value="low polyreactivity"
monomer_sequence=QVQLVESGGGLVQAGGSLRLSCAASGSTFSDYAMGWYRQAPGKERELVAAISGGGTTDYADSVKGRFTISRDNAKNTVYLQMNSLKPEDTAVYYCNKPVEGSFLPYSYLRFDYWGQGTQVTVSS metric="polyreactivity (PSR sort gate)" obs_value="low polyreactivity"
monomer_sequence=QVQLVESGGGLVQAGGSLRLSCAASGITFRRYALGWYRQAPGKERELVAAITSGGGTYYADSVKGRFTISRDNAKNTVYLQMNSLKPEDTAVYYCNTYYHWLTMDYWGQGTQVTVSS metric="polyreactivity (PSR sort gate)" obs_value="high polyreactivity"
monomer_sequence=QVQLVESGGGLVQAGGSLRLSCAASGSIQGYVMGWYRQAPGKERELVAAITNGGSTYYADSVKGRFTISRDNAKNTVYLQMISLKPEDTAVYYCAKRKFRWPYQGSYSYIPFGYWGQGTQVTVSS metric="polyreactivity (PSR sort gate)" obs_value="high polyreactivity"

Continue with the next sequence.
### Prompt I am curious: what polyreactivity (PSR sort gate) value has been reported for QVQLVESGGGLVQAGGSLRLSCAASGRIFPYYAMGWYRPAPGKERELVATISTAGSTNYADSVKGRFTISRDNAKNTVYLQMKSLKPEDTAVYYCATRNTWYHRGYDYWGQGTQVTVSS ?
### Response low polyreactivity
